Reference source for all entries: patent US4542153A

System: thoracic aorta strips contracted with norepinephrine
Assay: Vasodilator activity: norepinephrine-contracted aortic strips
Format: cell-based, male Sprague-Dawley rats
Conditions: rat aorta contracted with 10^-7 M norepinephrine; read-out: IC50 (mean and range of SEM) Norepinephrine
Method: […] The vasodilator activity tests were conducted on male Sprague-Dawley rats, obtained from Harlan Industries, Inc., Cumberland, Indiana. […] Forces generated by the strip were monitored using a Grass FT03 isometric transducer coupled to a Grass module 7D polygraph recorder, both the transducer and the recorder being obtained from Grass Instrument Co., of Quincy, Mass. […]
property: pIC50
FYI, pIC50 means -log10 of a concentration in mol per litre.

# compound, property, assay-result
rows = [
    ("CCCC1=Cc2cc3c(cc2C1[N+](C)(C)C)OCO3.[I-] (stereo not drawn)", "pIC50", 3.42),
    ("CCC[C@@H]1Cc2cc3c(cc2[C@@H]1[N+](C)(C)C)OCO3 (relative stereo) [cis sat-Q-pr-MDI]", "pIC50", 2.99),
]

Test item CCCCC1=Cc2cc3c(cc2C1N(C)C)OCO3.Cl (stereo not drawn) [bu-MDI, hydrochloride, reference compound] ; thoracic aorta strips contracted with norepinephrine; reported pIC50 was 4.13

Record CCCCC1=Cc2cc3c(cc2C1[N+](C)(C)C)OCO3.[I-] (stereo not drawn) ; system thoracic aorta strips contracted with norepinephrine; pIC50 = 3.89

The recorded pIC50 with thoracic aorta strips contracted with norepinephrine for CCCC[C@@H]1Cc2cc3c(cc2[C@@H]1[N+](C)(C)C)OCO3 (relative stereo) [cis sat-Q-bu-MDI] was 3.55

pIC50 of CCCC1=Cc2cc3c(cc2C1N(C)C)OCO3.Cl (stereo not drawn) [pr-MDI, reference compound] , assay on thoracic aorta strips contracted with norepinephrine, is 4.11
